Where do these numbers come from? They come from patent US8648066B2.

Target: mTOR/GbL/Raptor (mTORC1) (Homo sapiens, UniProt P42345)
Test: mTOR/GbL/Raptor (mTORC1) ELISA assay
Conditions: phosphorylation of 4E-BP1; 0.2 nM mTORC1, 10 μM ATP; read-out: IC50 in this assay (mTORC1 ELISA)
Description: The measurement of mTORC1 enzyme activity was performed in an ELISA assay format following the phosphorylation of 4E-BP1 protein. All experiments were performed in the 384-well format. Generally, 0.5 μL DMSO containing varying concentrations of the test Compound was mixed with 15 μL enzyme solution. […] Following the final wash step with TBST, 20 μL of SuperSignal ELISA Femto (Pierce Biotechnology) was added and the luminescence measured using an EnVision plate reader.
pIC50: −log10 of the molar value.
assayEndpoint: pIC50

Give pIC50 for each listed item.
1. Cc1nc2ncc(-c3ccc4c(c3)CN(c3ncnc5c3CC[C@H](C)C5)CCO4)cc2[nH]1
2. Nc1nc2ccc(-c3ccc4c(c3)CN(c3nc(-c5ccccc5)nc5ccccc35)CCO4)cc2[nH]1
3. CC1(C)CCc2ncnc(N3CCOc4ccc(-c5cnc(N)c(S(=O)(=O)NC6CCNCC6)c5)cc4C3)c2C1
4. COc1ccc2c(N3CCOc4ccc(-c5cnc6[nH]ccc6c5)cc4C3)nc(C)nc2c1
5. Cc1nc2ncc(-c3ccc4c(c3)CN(c3ncnc(C)c3Br)CCO4)cc2[nH]1
6. CCOc1ccc2ncnc(N3CCOc4ccc(-c5ccc6nc(C)[nH]c6c5)cc4C3)c2c1
7. Cc1nc2ccc(-c3ccc4c(c3)CN(c3nccc5ccccc35)CCO4)cc2[nH]1
8. CCN(Cc1nc2c(c(N3CCOc4ccc(-c5cnc6nc(C)[nH]c6c5)cc4C3)n1)CC(C)(C)CC2)C(C)C

6.60 to 7.30
6.60 to 7.30
6.60 to 7.30
6.00 to 6.60
6.60 to 7.30
6.60 to 7.30
6.60 to 7.30
6.60 to 7.30

Give pIC50 for each listed item.
1. Cc1nc2ccc(-c3ccc4c(c3)CN(c3ncnc(C)c3Cc3ccc(Cl)cc3)CCO4)cc2[nH]1
2. CCc1ncnc(N2CCOc3ccc(-c4ccc5nc(C)[nH]c5c4)cc3C2)c1CC

≥ 8.00
6.60 to 7.30
